The following compounds are listed with their measured pIC50 values.
biological target: Sodium/glucose cotransporter 1 (Homo sapiens); assay: These cell lines transport 14C-labelled alpha-methyl-glucopyranoside (14C-AMG, Amersham) into the interior of the cell in sodium-dependent manner.The SGLT-2 assay is carried out as follows: CHO-hSGLT2 cells are cultivated in Ham's F12 Medium (BioWhittaker) with 10% foetal calf serum and 250 ug/mL zeocin (Invitrogen), and HEK293-hSGLT2 cells are cultivated in DMEM medium with 10% foetal calf serum and 250 ug/mL zeocin (Invitrogen). The cells are detached from the culture flasks by washing twice with PBS.
Sequence (P13866 whole entry): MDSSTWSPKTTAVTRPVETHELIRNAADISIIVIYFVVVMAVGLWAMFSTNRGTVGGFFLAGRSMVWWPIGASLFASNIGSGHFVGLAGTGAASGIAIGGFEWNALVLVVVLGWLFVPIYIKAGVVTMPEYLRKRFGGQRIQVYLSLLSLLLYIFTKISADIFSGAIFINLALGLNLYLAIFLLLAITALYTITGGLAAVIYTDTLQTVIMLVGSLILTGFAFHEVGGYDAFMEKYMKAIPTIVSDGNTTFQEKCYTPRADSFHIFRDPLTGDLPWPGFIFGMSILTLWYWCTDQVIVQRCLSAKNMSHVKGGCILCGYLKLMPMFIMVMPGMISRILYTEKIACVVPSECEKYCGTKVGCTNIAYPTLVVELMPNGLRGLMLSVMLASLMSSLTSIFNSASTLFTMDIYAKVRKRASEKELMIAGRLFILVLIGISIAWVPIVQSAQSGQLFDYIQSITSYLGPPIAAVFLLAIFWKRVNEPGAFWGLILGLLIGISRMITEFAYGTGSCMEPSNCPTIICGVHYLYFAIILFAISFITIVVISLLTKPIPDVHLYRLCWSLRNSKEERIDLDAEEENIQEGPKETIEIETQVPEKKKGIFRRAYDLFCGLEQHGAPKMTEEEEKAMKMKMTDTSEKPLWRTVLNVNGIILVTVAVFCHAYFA
Formally, pIC50 is defined as -log10 of the concentration c, with c in mol/L.

input: Would you mind telling me what pIC50 value was observed for CCc1ccc([C@@H]2O[C@H](COP(=O)(O)O)[C@@H](O)[C@H](O)[C@H]2O)cc1Cc1ccc2c(c1)OCCO2 ?
output: 7.05

input: Again, but for CCc1ccc([C@@H]2O[C@H](COC(=O)OC(C)(C)C)[C@@H](O)[C@H](O)[C@H]2O)cc1Cc1ccc2c(c1)OCCO2
output: 6.73

Reference for the values: ChEMBL document CHEMBL3639144
